Overview of reported IC50 at 72 h across a group of molecules:
- EXPERIMENT_SUMMARY: Cytotoxicity against human MRC5 cells assessed as inhibition of cell growth incubated for 72 hrs by SRB assay
- Type: toxicity, cell-based

The following molecules have reported results that may help.
{"columns": ["MOLECULE", "MEASURED_RESULT"],
 "data": [
  ["O=C1c2ccccc2N[C@@H]2c3[nH]c4ccccc4c3CCN12", "> 50 µM"],
  ["COc1ccc2c(c1)N(C)[C@@H]1c3[nH]c4ccccc4c3CCN1C2=O", "3.6 µM"],
  ["CN1c2ccccc2C(=O)N2CCc3c(n(Cc4ccc(Cl)cc4)c4ccccc34)[C@H]21", "> 50 µM"],
  ["CN1c2cccc(Cl)c2C(=O)N2CCc3c([nH]c4ccccc34)[C@H]21", "< 0.4 µM"]
]}

Ask: Recorded IC50 at 72 h of COc1ccc2[nH]c3c(c2c1)CCN1C(=O)c2ccccc2N(C)[C@H]31 , please.
Reply: 10.8 µM

Ask: Recorded IC50 at 72 h of CC(=O)Oc1ccc2[nH]c3c(c2c1)CCN1C(=O)c2cc(F)ccc2N(C)[C@H]31 , please.
Reply: < 0.4 µM

Ask: Recorded IC50 at 72 h of O=C1c2ccccc2N(C(=O)C2CCCCC2)C2c3[nH]c4ccccc4c3CCN12 (single isomer, unassigned) , please.
Reply: > 50 µM

Ask: Recorded IC50 at 72 h of CN1c2ccccc2C(=O)N2CCc3c([nH]c4ccccc34)[C@H]21 , please.
Reply: > 50 µM

Values from ChEMBL document CHEMBL5584333
